This collection of values is drawn from patent US9980943B2.

# Test system: α7 integrin (LacZ reporter in α7LacZ+/− myoblasts)
# assayProcedure: qHTS of the LOPAC library and MLSMR (online screen, α7LacZ+/− myoblasts)
# testParameters: Mus musculus, Myoblast, 48 h, read-out: Activity at 1.530 uM [%] **
The reader will find reported activation at 1.53 µM values listed item by item below.
quantityMeasured: activation at 1.53 µM (%)

INSERT INTO assay_data (compound, unittext, readoutvalue) VALUES
  ('CNc1nnc(SCC(=O)c2cc(C)n(C3CC3)c2C)s1', '%', -22),
  ('CCNC(=O)COC(=O)c1cc(-c2ccco2)nc2ccccc12', '%', -45.5),
  ('Oc1c(Br)cc(Br)cc1CNc1cccc2cccnc12', '%', -17.9),
  ('O=c1oc2c(-c3cccc(F)c3)cc(O)cc2s1', '%', 18.8),
  ('CNc1cc([N+](=O)[O-])ccc1OCc1ccccc1', '%', 16.2),
  ('Cc1cc(C(=O)Nc2cccc3ccccc23)c(C)o1', '%', -14.3),
  ('COc1cc(/C=C2/C(=N)N3C(SC)=NSC3=NC2=O)ccc1OC(=O)c1ccco1', '%', -9.07),
  ('Cc1cccn2c(=O)c3cc(C(=O)NC4CCCCC4)n(C)c3nc12', '%', 5.58),
  ('CC(=O)c1ccc(N(C(=O)CNC(=O)c2ccco2)C(C(=O)NC2CCCC2)c2ccc(C)o2)cc1 (stereo not shown)', '%', -20.9),
  ('COCCn1c(=N)c(S(=O)(=O)c2ccc(Br)cc2)cc2c(=O)n3ccccc3nc21', '%', 1.1),
  ('CCS(=O)(=O)N1CCN(c2ccc([N+](=O)[O-])c(NCC3CCCO3)c2)CC1 (stereo not shown)', '%', 0.157),
  ('O=C(CSc1nnc(C2CC2)n1C1CC1)c1cccs1', '%', -28.4),
  ('CN(C#N)c1nccc(-c2cccs2)n1', '%', -25.3);
